From: patent US7968543B2

Assay Summary: clinical
Assay Setup: human, in vivo, 12 mg
Quantity: half-life

>>> print(df.to_string())
                                   molecule   result
0  CC(C)(C)c1cc(NC(=O)Nc2ccc(-c3cn4c(n3)sc3cc(OCCN5CCOCC5)ccc34)cc2)no1  ~67.2 h

====

Assay Summary: clinical
Assay Setup: human, in vivo, 18 mg
Quantity: half-life

In [3]: df
Out[3]:
                                   molecule   quantity        result
0  CC(C)(C)c1cc(NC(=O)Nc2ccc(-c3cn4c(n3)sc3cc(OCCN5CCOCC5)ccc34)cc2)no1 [compound of Formula I]  half-life  24 to 67.2 h

====

Assay Summary: clinical
Assay Setup: human, in vivo, 18 mg, SS AUC0-24 (ng * h/mL)
Quantity: AUC(0-t) (ng·h/mL)

>>> df
                                   compound  quantity  result_number
0  CC(C)(C)c1cc(NC(=O)Nc2ccc(-c3cn4c(n3)sc3cc(OCCN5CCOCC5)ccc34)cc2)no1 [compound of Formula I]  AUC(0-t)           1380
